target: HA of ca A/mallard/Alberta/89/85 (H6N2) virus (influenza A virus); assay: cell-based or functional assay
EXPERIMENTAL READOUT: Neutralization IC50, H6-AB85 (µg/mL)
Output spec: scalar in µg/mL, unitless text.

Guide cases for Neutralization IC50, H6-AB85, answers given:
binder="Antibody 11 (antibody, V domains shown) VH: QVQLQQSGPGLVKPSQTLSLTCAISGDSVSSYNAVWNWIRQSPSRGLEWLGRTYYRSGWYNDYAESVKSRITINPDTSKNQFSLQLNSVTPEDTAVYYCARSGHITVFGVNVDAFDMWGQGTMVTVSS VL: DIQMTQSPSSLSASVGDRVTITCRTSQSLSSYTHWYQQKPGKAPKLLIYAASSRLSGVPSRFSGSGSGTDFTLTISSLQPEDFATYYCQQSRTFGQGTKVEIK" experimental_readout="Neutralization IC50, H6-AB85" unit_info=µg/mL readout_value=0.24
binder="Antibody 12 (antibody, V domains shown) VH: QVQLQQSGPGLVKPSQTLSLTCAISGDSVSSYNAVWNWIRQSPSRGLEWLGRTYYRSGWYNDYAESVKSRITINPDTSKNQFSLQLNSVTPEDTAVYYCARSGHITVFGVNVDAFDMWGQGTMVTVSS VL: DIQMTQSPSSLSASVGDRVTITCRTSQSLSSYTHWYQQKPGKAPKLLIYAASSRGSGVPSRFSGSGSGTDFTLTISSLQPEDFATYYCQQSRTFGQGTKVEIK" experimental_readout="Neutralization IC50, H6-AB85" unit_info=µg/mL readout_value=0.32

input: Looking for the measured Neutralization IC50, H6-AB85 of Antibody 13 (antibody, V domains shown) VH: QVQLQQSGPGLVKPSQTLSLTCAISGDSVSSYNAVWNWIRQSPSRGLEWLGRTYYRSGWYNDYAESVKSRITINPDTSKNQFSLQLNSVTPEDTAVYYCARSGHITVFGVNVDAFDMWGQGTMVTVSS VL: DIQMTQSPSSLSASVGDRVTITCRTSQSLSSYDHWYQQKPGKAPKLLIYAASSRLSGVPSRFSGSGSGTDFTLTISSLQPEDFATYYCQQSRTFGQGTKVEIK , can you help?
output: 0.29
